The measured values listed here are drawn from PubChem BioAssay.

assay: changes in parasitized red cell lysis, either direction – P. falciparum Indochina, OD700, 3 h, PSAC antagonist project, primary screen (AID 1156); settings: P. falciparum-infected erythrocytes, osmotic lysis, higher = more signal, called active from +8 up or from −8 down
ASSAY METRIC: z-score
Keep the answer to the number alone.

Prompt: Entry under review: `C=CCNC(=O)[C@H]1[C@@H]2C(=O)O[C@@H](c3ccccc3)[C@@H](c3ccccc3)N2[C@@H](c2ccc(OCCO)cc2)[C@]12C(=O)Nc1ccc(C#CC3(O)CCCCCC3)cc12` . Reported z-score?
Response: -0.441

Prompt: Entry under review: `COC(=O)[C@@]1(Cc2ccc(F)cc2)[C@H]2c3cc(C(=O)N4CCCC4)n(CCc4ccccn4)c3C[C@H]2CN1C(=O)c1ccccc1` . Reported z-score?
Response: 0.394

Prompt: Entry under review: `COC(=O)[C@H](Cc1ccc(O)cc1)N[C@@H](/C=C/C1CC1)[C@H](O)Cc1ccccc1` . Reported z-score?
Response: 0.098

Prompt: Entry under review: CC=CC(O)C1C=CC2C(=O)NC(=O)C2N1Nc1ccc(Cl)cc1Cl (centres undefined) . Reported z-score?
Response: 0.0682

* * *

target: Calmodulin-1 (Homo sapiens); experiment: small molecules binding calmodulin-1 with EGTA – biochemical, small-molecule microarray, Cy5-labelled CALM1, profiling panel (AID 1111); settings: Cy5-CALM1 binding fluorescence, higher = more signal;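 further: labelled calmodulin applied in Tris saline Tween buffer holding calcium plus EGTA and DTT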
Measured composite z-score determines class: bucket 1 (below -0.2), bucket 2 (-0.2 to below 0.2), bucket 3 (0.2 or more)

// known answers, use as guide
O=C1C=C(c2ccccc2)C(=O)C2=C1CC([C@H]1Oc3ccccc3S(=O)(=O)N3CCC[C@@H]13)=CC2 :: bucket 2
CCOC(=O)c1cn(C[C@H](Cc2ccccc2)NC(=O)N[C@H](CO)CCc2oc(C(C)=O)c(C(=O)OC)c2C(=O)OC)nn1 :: bucket 2
C=C(COC)C(=O)CC[C@@H](OC(=O)c1ccccc1-c1ccccc1C(=O)O)c1ccc(OCCO)cc1 :: bucket 1
C=CCN1C(=O)[C@]2(O[C@H](CCn3cc([C@H](O)c4ccccc4)nn3)[C@@H]([Si](C)(C)c3ccc(OC)cc3)[C@@H]2C)c2cc(NC(=O)c3ccc(OC)cc3)ccc21 :: bucket 2

Prompt: Lab note: sort CC(C)(C)N1CC=CC23O[C@@H]4/C=C\CCCOC(=O)C4[C@H]2C(=O)N(CCCO)[C@@H]3C1=O (some centres undefined) into the matching composite z-score band.
Response: bucket 1

Prompt: Lab note: sort `C[C@@H]1ON(c2ccccc2)[C@H](c2ccccc2)[C@H]1C(=O)O` into the matching composite z-score band.
Response: bucket 2

Prompt: Lab note: sort CC(C)C(CO)N1C(=O)[C@@H]2C3C(=O)OCCC/C=C\[C@H]3OC23C=CCN(Cc2ccccc2)C(=O)[C@@H]13 (some centres undefined) into the matching composite z-score band.
Response: bucket 1

Prompt: Lab note: sort `C=CCN1C(=O)[C@@]2(O[C@@H](CCn3cc([C@H](O)c4ccccc4)nn3)[C@H]([Si](C)(C)c3ccc(OC)cc3)[C@H]2C)c2cc(N3C(=O)c4cccc5cccc3c45)ccc21` into the matching composite z-score band.
Response: bucket 2

Prompt: Lab note: sort `COCCOC(=O)N1C(=O)[C@@]2(c3ccccc31)[C@H](C(=O)N1CCN(c3ncccn3)CC1)[C@H]1C(=O)O[C@H](c3ccccc3)[C@H](c3ccccc3)N1[C@@H]2c1ccccc1OCCO` into the matching composite z-score band.
Response: bucket 3

Prompt: Lab note: sort `COCCCNC(=O)[C@@]1(CCS(=O)(=O)c2ccccc2)COC(c2ccc(OCCCO)cc2)=N1` into the matching composite z-score band.
Response: bucket 3
